# Experimental details: In situ rat brain perfusion (brain uptake Kin, extraction E, BBB PS)
# Condition set: PoS in mL/s/g
Cut-off -2 on Log PoS: below means YES, at or above means NO.

>>> cat("O=C(CO)[C@@H](O)[C@H](O)[C@H](O)CO")
"YES"
>>> cat("OCCCO")
"YES"
>>> cat("Nc1ccccc1C(=O)O")
"NO"
>>> cat("CO")
"NO"
>>> cat("CC(=O)N[C@@H](CS)C(=O)O")
"YES"
>>> cat("CCCCNS(=O)(=O)c1ccccc1 [N-butyl-benzene sulfonamide]")
"NO"

###

# Condition set: rat, brain
Measured attribute: half-life (min)

>>> meas_value("Cc1c(N(C)C)c(=O)n(-c2ccccc2)n1C")
0.76
>>> meas_value("Cc1cc(=O)n(-c2ccccc2)n1C [Antipyrine]")
0.93
>>> meas_value("OCC(O)CO")
145
>>> meas_value("OC[C@H]1O[C@H](OC[C@H]2O[C@H](O[C@]3(CO)O[C@H](CO)[C@@H](O)[C@@H]3O)[C@H](O)[C@@H](O)[C@@H]2O)[C@H](O)[C@@H](O)[C@H]1O")
405
>>> meas_value("Cc1c(I)c(=O)n(-c2ccccc2)n1C [Iodoantipyrine]")
0.5
>>> meas_value("OC[C@@H](O)[C@@H](O)[C@H](O)[C@H](O)CO")
109
>>> meas_value("CC(C(=O)O)c1ccc(-c2ccccc2)c(F)c1 (stereo not drawn)")
3.9
>>> meas_value("COC(=O)[C@H]1[C@H]2C[C@@H]3c4[nH]c5cc(OC)ccc5c4CCN3C[C@H]2C[C@@H](OC(=O)c2cc(OC)c(OC)c(OC)c2)[C@@H]1OC")
0.77
>>> meas_value("O=C1NC(=O)C(c2ccccc2)(c2ccccc2)N1")
6.02

###

Listed below: Log PoS values for each entry.
# Condition set: rat, in vivo, pH 7.4
Measured attribute: Log PoS

>>> meas_value("CN(C)CCCN1c2ccccc2Sc2ccc(Cl)cc21")
1.30
>>> meas_value("O=C(O)c1cccnc1C(=O)O")
"−3.13"
>>> meas_value("Cn1nnc2c(C(N)=O)ncn2c1=O [Temozolamide]")
"−2.79"
>>> meas_value("Fc1ccc([C@@H]2CCNC[C@H]2COc2ccc3c(c2)OCO3)cc1")
1.59
>>> meas_value("OCCCCCCO")
"−1.42"
>>> meas_value("CCCC(CCC)C(=O)O")
0.46
>>> meas_value("OCCCCO")
"−1.82"
>>> meas_value("CCC1(c2ccccc2)C(=O)NC(=O)NC1=O")
"−1.86"
>>> meas_value("O=C(O)CCCc1ccc(N(CCCl)CCCl)cc1")
1.26
>>> meas_value("CC(C(=O)O)c1ccc(-c2ccccc2)c(F)c1 (stereo not shown)")
1.58
>>> meas_value("O=C(O)c1cc(=O)c2ccccc2[nH]1")
0.42
>>> meas_value("Cc1c(I)c(=O)n(-c2ccccc2)n1C [Iodoantipyrine]")
"−0.81"
>>> meas_value("O=C1NC(=O)C(c2ccccc2)(c2ccccc2)N1")
"−1.53"
>>> meas_value("COC(=O)[C@H]1[C@H]2C[C@@H]3c4[nH]c5cc(OC)ccc5c4CCN3C[C@H]2C[C@@H](OC(=O)c2cc(OC)c(OC)c(OC)c2)[C@@H]1OC")
"−0.97"
>>> meas_value("CCC1(CC)C(=O)NC(=O)NC1=O")
"−2.32"
>>> meas_value("OC[C@@H](O)[C@@H](O)[C@H](O)[C@H](O)CO")
"−5.06"
>>> meas_value("OCC(O)CO")
"−4.08"
>>> meas_value("Nc1c(O)cccc1C(=O)O [3-hydroxy-anthranilic acid]")
"−1.05"
>>> meas_value("CCCC(C)C1(CC)C(=O)NC(=O)NC1=O (stereo not shown)")
"−1.22"
>>> meas_value("CC(=O)CC(c1ccccc1)c1c(O)c2ccccc2oc1=O (stereo not shown)")
1.71
>>> meas_value("OC[C@H]1O[C@H](OC[C@H]2O[C@H](O[C@]3(CO)O[C@H](CO)[C@@H](O)[C@@H]3O)[C@H](O)[C@@H](O)[C@@H]2O)[C@H](O)[C@@H](O)[C@H]1O")
"−6.02"
>>> meas_value("OC[C@@H](O)[C@@H](O)CO")
"−4.49"

###

# Condition set: rat, in vivo
Cut-off 300 ×10⁻⁶ cm/s on Pc: below means 1, at or above means -1.

>>> cat("CC(C)(C)OC(=O)CCCc1ccc(N(CCCl)CCCl)cc1 [t-butyl chlorambucil]")
-1
>>> cat("OCCO [Ethylene glycol]")
1
>>> cat("OCCCO [1,3 Propanediol]")
1
>>> cat("O [Water]")
1
>>> cat("O=C[C@@H](O)[C@H](O)[C@@H](O)[C@@H](O)CO [L-Glucose]")
1
>>> cat("CCCCO [Butanol]")
-1

###

# Condition set: calculated at brain blood flow […], free drug
Listed below: Extraction (unbound) values for each entry.
Measured attribute: Extraction (unbound) (%)

>>> meas_value("CCCCCCO")
99.9
>>> meas_value("Cn1nnc2c(C(N)=O)ncn2c1=O [Temozolamide]")
4.3
>>> meas_value("CC(C)NCC(O)COc1cccc2ccccc12 (centres unmarked)")
98.3
>>> meas_value("CN(C)CCCN1c2ccccc2Sc2ccc(Cl)cc21")
100
>>> meas_value("COc1ccc2c(c1)c(CC(=O)O)c(C)n2C(=O)c1ccc(Cl)cc1")
27.3
>>> meas_value("O=C1NC(=O)C(c2ccccc2)(c2ccccc2)N1")
66.6
>>> meas_value("OCCCCCCO")
96.3
>>> meas_value("Cc1c(N(C)C)c(=O)n(-c2ccccc2)n1C")
89.8
>>> meas_value("Cn1c(=O)c2c(ncn2C)n(C)c1=O")
64.7
>>> meas_value("Cc1cc(=O)n(-c2ccccc2)n1C [Antipyrine]")
62.7
>>> meas_value("CCO")
83.0
>>> meas_value("CNC(N)=O")
0.79
>>> meas_value("O=C(CO)[C@@H](O)[C@H](O)[C@H](O)CO")
"2.39E-04"
>>> meas_value("CC(C(=O)O)c1ccc(-c2ccccc2)c(F)c1 (centres unmarked)")
61.6
>>> meas_value("O=C(O)c1cccnc1C(=O)O")
0.01
>>> meas_value("Fc1ccc([C@@H]2CCNC[C@H]2COc2ccc3c(c2)OCO3)cc1")
99.4
>>> meas_value("OCC(O)CO")
0.34
>>> meas_value("CC(O)CO (centres unmarked)")
8.6
>>> meas_value("CCCC(CCC)C(=O)O")
31.8
>>> meas_value("COC(=O)[C@H]1[C@H]2C[C@@H]3c4[nH]c5cc(OC)ccc5c4CCN3C[C@H]2C[C@@H](OC(=O)c2cc(OC)c(OC)c(OC)c2)[C@@H]1OC")
97.6
>>> meas_value("CC(=O)N[C@@H](CS)C(=O)O")
"7.60E-05"
>>> meas_value("OC[C@H]1O[C@@](CO)(O[C@H]2O[C@H](CO)[C@@H](O)[C@H](O)[C@H]2O)[C@@H](O)[C@@H]1O")
"2.00E-04"
>>> meas_value("Cc1c(I)c(=O)n(-c2ccccc2)n1C [Iodoantipyrine]")
99.8

###

# Experimental details: Octanol/water partition and distribution coefficients
# Condition set: octanol partition coefficient
Measured attribute: Log Poct

>>> meas_value("N[C@@H](Cc1ccccc1)C(=O)O")
1.110
>>> meas_value("CC(C)C[C@H](CN)CC(=O)O")
1.12
>>> meas_value("CNC[C@H](N)C(=O)O")
"−0.85"
>>> meas_value("N[C@H](C(=O)O)[C@@H]1CC(Cl)=NO1")
"−0.31"
>>> meas_value("N[C@@H](Cc1ccc(N(CCCl)CCCl)cc1)C(=O)O")
1.79
>>> meas_value("Nc1ccn([C@@H]2O[C@H](CO)[C@@H](O)C2(F)F)c(=O)n1")
"−0.470"
>>> meas_value("NCC1(CC(=O)O)CCCCC1")
1.19
>>> meas_value("N[C@@H](Cc1ccc(O)c(O)c1)C(=O)O")
"−0.22"

###

# Experimental details: in vivo
# Condition set: rat, pH 7.4
Measured attribute: half-life (min)

>>> meas_value("CCCC(C)C1(CC)C(=O)NC(=O)NC1=O (centres unmarked)")
1.15
>>> meas_value("Cc1cc(=O)n(-c2ccccc2)n1C [Antipyrine]")
1

###

# Condition set: rat, in vivo, pH 7.4
Measured attribute: PcS

>>> meas_value("CC(C(=O)O)c1ccc(-c2ccccc2)c(F)c1 (stereo not shown) [Flurbiprofen]")
"0.023 mL/s/g"
>>> meas_value("O=C1NC(=O)C(c2ccccc2)(c2ccccc2)N1 [Phenytoin]")
"0.026 mL/s/g"
>>> meas_value("CCCC(CCC)C(=O)O [Valproic acid]")
"0.0092 mL/s/g"
>>> meas_value("CCC1(c2ccccc2)C(=O)NC(=O)NC1=O [Phenobarbital]")
"0.0065 mL/s/g"
